System: strain MNH22004
Assay: Antibiotic sensitivity test by disk diffusion method, strain MNH22004
Assay type: cell-based, Megasphaera sp.
metric: Diameter of inhibition zone by MNH22004 (mm)
Return type: number; implicit unit mm.

Record excerpt, results attached:
| smiles-input | Diameter of inhibition zone by MNH22004 (mm) |
| --- | --- |
| O=C(N[C@H](CO)[C@H](O)c1ccc([N+](=O)[O-])cc1)C(Cl)Cl | 33.29 |
| CC1(C)S[C@@H]2[C@H](NC(=O)[C@H](N)c3ccccc3)C(=O)N2[C@H]1C(=O)O | 0 |
| O=C(O)c1cn(C2CC2)c2cc(N3CCNCC3)c(F)cc2c1=O | 35.42 |
| CC[C@H]1OC(=O)[C@H](C)[C@@H](O[C@H]2C[C@@](C)(OC)[C@@H](O)[C@H](C)O2)[C@H](C)[C@@H](O[C@@H]2O[C@H](C)C[C@H](N(C)C)[C@H]2O)[C@](C)(O)C[C@@H](C)C(=O)[C@H](C)[C@@H](O)[C@]1(C)O | 21.03 |
| CCC[C@@H]1C[C@@H](C(=O)N[C@@H]([C@H]2O[C@H](SC)[C@H](O)[C@@H](O)[C@H]2O)[C@@H](C)O)N(C)C1 | 11.34 |

# input For the compound CO/N=C(\C(=O)N[C@@H]1C(=O)N2C(C(=O)O)=C(CSc3nc(=O)c(=O)[nH]n3C)CS[C@H]12)c1csc(N)n1 , give its reported Diameter of inhibition zone by MNH22004.
# output 12.78

# input For the compound CN(C)[C@@H]1C(O)=C(C(N)=O)C(=O)[C@@]2(O)C(O)=C3C(=O)c4c(O)cccc4[C@@](C)(O)[C@H]3C[C@@H]12 , give its reported Diameter of inhibition zone by MNH22004.
# output 10.48

* * *

Entries and their Diameter of inhibition zone by MNH27256
System: strain MNH27256
Assay: Antibiotic sensitivity test by disk diffusion method, strain MNH27256
Type: cell-based, Megasphaera sp.
Return type: number; implicit unit mm.

Record excerpt, results attached:
| smiles-input | units-label | measurement |
| --- | --- | --- |
| O=C(O)c1cn(C2CC2)c2cc(N3CCNCC3)c(F)cc2c1=O | mm | 34.69 |
| CN(C)[C@@H]1C(O)=C(C(N)=O)C(=O)[C@@]2(O)C(O)=C3C(=O)c4c(O)cccc4[C@@](C)(O)[C@H]3C[C@@H]12 | mm | 17.75 |
| O=C(N[C@H](CO)[C@H](O)c1ccc([N+](=O)[O-])cc1)C(Cl)Cl | mm | 34.45 |
| CCC[C@@H]1C[C@@H](C(=O)N[C@@H]([C@H]2O[C@H](SC)[C@H](O)[C@@H](O)[C@H]2O)[C@@H](C)O)N(C)C1 | mm | 8.81 |
| CO/N=C(\C(=O)N[C@@H]1C(=O)N2C(C(=O)O)=C(CSc3nc(=O)c(=O)[nH]n3C)CS[C@H]12)c1csc(N)n1 | mm | 0 |

# input For the compound CC[C@H]1OC(=O)[C@H](C)[C@@H](O[C@H]2C[C@@](C)(OC)[C@@H](O)[C@H](C)O2)[C@H](C)[C@@H](O[C@@H]2O[C@H](C)C[C@H](N(C)C)[C@H]2O)[C@](C)(O)C[C@@H](C)C(=O)[C@H](C)[C@@H](O)[C@]1(C)O , give its reported Diameter of inhibition zone by MNH27256.
# output 9.0

# input For the compound CC1(C)S[C@@H]2[C@H](NC(=O)[C@H](N)c3ccccc3)C(=O)N2[C@H]1C(=O)O , give its reported Diameter of inhibition zone by MNH27256.
# output 0
